# EXPERIMENTAL SYSTEM: biotinylated RBD (Wuhan-Hu-1) (Severe acute respiratory syndrome coronavirus 2, UniProt P0DTC2)
EXPERIMENTAL ENDPOINT: binding of coated CDR3-knob to biotinylated RBD, in words

1. GGSEGDKTCPDGYEHTCGCIGGCGCKRSACIGALCCQASLGGWL [G3 TRUNC3A]    reduced binding
2. GGSEGDKTCPDGYEHTCGCIGGCGCKRSACIGALCCQASLGGW [G3 TRUNC3B]    reduced binding

Data credit: patent US20260184766A1
